assay: Tmax in CD-1 mouse at 10 mg/kg, po; assay type: ADME, organism-based; settings: in vivo
ASSAY METRIC: Tmax (min)

1. O=C(Nc1ccc(C(F)(F)F)cn1)c1ccc(CN2C(=O)c3ccc(Cl)cc3NC(=O)[C@H]2Cc2ccccn2)cc1Cl; 15

* * *

experiment: Tmax in hamster at 10 mg/kg, po; format: ADME, organism-based; settings: cricetinae, in vivo
ASSAY METRIC: Tmax (min)

1) O=C(Nc1ccc(C(F)(F)F)cn1)c1ccc(CN2C(=O)c3ccc(Cl)cc3NC(=O)[C@H]2Cc2ccccn2)cc1Cl; 15

* * *

biological target: Toxin A (Clostridioides difficile); assay: Inhibition of Clostridium difficile toxin A […] CHO cells assessed as reduction in caspase 3/7 activation pre-incubated for 1 hr before TcdA addition by luminescence based assay
Sequence (P16154 whole entry): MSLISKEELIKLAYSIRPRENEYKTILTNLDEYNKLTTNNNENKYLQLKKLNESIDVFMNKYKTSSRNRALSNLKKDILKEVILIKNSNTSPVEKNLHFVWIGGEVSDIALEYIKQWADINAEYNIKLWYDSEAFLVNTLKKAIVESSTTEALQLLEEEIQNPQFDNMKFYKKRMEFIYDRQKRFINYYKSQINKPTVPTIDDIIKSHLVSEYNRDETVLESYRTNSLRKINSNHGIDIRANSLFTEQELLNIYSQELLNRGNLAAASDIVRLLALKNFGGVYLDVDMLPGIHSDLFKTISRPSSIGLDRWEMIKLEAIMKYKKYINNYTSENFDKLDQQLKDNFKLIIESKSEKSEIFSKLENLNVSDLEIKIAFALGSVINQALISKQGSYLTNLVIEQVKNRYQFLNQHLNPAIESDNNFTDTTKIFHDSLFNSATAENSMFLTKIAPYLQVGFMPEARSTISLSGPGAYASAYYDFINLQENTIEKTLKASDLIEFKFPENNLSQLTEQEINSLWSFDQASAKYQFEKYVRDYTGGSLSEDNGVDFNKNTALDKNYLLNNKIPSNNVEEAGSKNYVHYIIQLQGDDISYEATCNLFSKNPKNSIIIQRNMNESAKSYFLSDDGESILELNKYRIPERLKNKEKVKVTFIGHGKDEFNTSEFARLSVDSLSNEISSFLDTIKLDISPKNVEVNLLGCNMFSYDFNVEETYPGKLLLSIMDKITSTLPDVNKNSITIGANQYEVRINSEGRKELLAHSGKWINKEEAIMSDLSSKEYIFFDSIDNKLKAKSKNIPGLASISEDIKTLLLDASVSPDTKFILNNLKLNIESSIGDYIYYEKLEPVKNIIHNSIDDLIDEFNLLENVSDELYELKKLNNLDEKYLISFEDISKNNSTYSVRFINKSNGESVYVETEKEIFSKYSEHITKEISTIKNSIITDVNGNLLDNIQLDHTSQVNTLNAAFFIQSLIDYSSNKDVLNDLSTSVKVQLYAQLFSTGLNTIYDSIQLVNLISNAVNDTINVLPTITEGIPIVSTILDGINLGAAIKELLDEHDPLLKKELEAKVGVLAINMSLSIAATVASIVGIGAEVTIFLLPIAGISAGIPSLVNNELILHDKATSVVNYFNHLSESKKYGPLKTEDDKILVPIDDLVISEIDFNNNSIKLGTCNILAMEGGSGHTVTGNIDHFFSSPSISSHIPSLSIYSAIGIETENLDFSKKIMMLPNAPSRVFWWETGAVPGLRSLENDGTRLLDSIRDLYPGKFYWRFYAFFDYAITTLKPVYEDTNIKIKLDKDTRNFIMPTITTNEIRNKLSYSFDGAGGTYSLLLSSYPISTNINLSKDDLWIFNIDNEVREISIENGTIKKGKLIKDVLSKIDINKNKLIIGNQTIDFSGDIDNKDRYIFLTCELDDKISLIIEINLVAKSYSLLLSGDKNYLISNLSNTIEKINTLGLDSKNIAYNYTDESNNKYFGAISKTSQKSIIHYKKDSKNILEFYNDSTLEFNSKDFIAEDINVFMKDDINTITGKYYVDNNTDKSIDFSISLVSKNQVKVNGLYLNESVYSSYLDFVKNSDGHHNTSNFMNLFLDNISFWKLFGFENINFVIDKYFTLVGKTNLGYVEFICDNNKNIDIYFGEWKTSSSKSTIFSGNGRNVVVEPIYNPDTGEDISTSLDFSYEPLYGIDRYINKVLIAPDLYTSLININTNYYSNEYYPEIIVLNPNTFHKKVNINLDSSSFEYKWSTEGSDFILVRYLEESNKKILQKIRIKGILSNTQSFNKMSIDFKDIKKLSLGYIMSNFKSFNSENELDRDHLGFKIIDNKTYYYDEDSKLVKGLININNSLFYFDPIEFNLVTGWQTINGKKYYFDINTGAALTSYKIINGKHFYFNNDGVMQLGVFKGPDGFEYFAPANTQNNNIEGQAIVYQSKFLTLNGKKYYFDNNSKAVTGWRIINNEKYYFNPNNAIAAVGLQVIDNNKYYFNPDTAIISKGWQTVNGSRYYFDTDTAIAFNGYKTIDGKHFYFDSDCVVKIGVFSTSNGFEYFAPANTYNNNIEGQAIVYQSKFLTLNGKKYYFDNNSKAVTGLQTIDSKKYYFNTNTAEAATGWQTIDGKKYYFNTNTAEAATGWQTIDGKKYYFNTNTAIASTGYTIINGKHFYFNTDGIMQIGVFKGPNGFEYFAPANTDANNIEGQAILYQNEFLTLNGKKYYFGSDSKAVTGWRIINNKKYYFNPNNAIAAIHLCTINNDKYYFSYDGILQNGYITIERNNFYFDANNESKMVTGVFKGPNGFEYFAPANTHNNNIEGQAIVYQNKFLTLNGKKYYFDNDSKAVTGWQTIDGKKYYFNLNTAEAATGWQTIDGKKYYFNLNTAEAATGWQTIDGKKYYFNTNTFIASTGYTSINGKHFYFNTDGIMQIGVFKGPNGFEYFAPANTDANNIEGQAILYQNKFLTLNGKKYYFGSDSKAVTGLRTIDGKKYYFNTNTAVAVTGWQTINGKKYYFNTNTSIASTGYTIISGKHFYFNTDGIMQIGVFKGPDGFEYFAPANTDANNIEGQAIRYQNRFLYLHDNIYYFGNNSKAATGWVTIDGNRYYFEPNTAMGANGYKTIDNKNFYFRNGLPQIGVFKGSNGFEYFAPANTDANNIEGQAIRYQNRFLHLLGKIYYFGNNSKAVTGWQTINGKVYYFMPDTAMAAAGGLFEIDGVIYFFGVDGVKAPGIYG
pIC50: −log10 of the molar value.
ASSAY METRIC: pIC50

1. Cc1ccc(NC(=O)c2ccc(CN3C(=O)c4ccc(Cl)cc4NC(=O)[C@H]3Cc3ccccn3)cc2C)nc1; 6.07
2. O=C(c1ccc(CN2C(=O)c3ccc(Cl)cc3NC(=O)[C@H]2Cc2ccccn2)cc1)c1cccn2ccnc12; 5.09
3. Cc1cc(CN2C(=O)c3ccc(Cl)cc3NC(=O)[C@H]2Cc2ccccn2)ccc1C(=O)Nc1ccc(F)cn1; 6.07
4. COc1ccc(NC(=O)c2ccc(CN3C(=O)c4ccc(Cl)cc4NC(=O)[C@H]3Cc3ccccn3)cc2Cl)nc1; 6.12
5. COc1ccc(NC(=O)c2ccc(CN3C(=O)c4ccc(Cl)cc4NC(=O)[C@H]3Cc3ccccn3)cc2OC)nc1; 5.96
6. Cn1cc(C(=O)c2ccc(CN3C(=O)c4ccc(Cl)cc4NC(=O)[C@H]3Cc3ccccn3)cc2)c2ncccc21; 5.28
7. COc1cc(CN2C(=O)c3ccc(Cl)cc3NC(=O)[C@H]2Cc2ccccn2)ccc1C(=O)Nc1ccc(F)cn1; 4.77
8. COc1cc(CN2C(=O)c3ccc(Cl)cc3NC(=O)[C@H]2Cc2ccccn2)ccc1C(=O)Nc1ccc(C(F)(F)F)cn1; 4.51
9. COc1cnc(NC(=O)c2ccc(CN3C(=O)c4ccc(Cl)cc4NC(=O)[C@H]3Cc3ccccn3)cc2Cl)cn1; 5.47
10. O=C(Nc1ccc(C(F)(F)F)cn1)c1ccc(CN2C(=O)c3ccc(Cl)cc3NC(=O)[C@H]2Cc2ccccn2)cc1Cl; 5.20
11. COc1cc(CN2C(=O)c3ccc(Cl)cc3NC(=O)[C@H]2Cc2ccccn2)ccc1C(=O)Nc1ccc(C)cn1; 4.96
12. COc1cnc(NC(=O)c2ccc(CN3C(=O)c4ccc(Cl)cc4NC(=O)[C@H]3Cc3ccccn3)cc2C)nc1; 6.16
13. Cc1ccc(C(=O)c2ccc(CN3C(=O)c4ccc(Cl)cc4NC(=O)[C@H]3Cc3ccccn3)cc2)nc1; 4.64
14. Cc1cnc(NC(=O)c2ccc(CN3C(=O)c4ccc(Cl)cc4NC(=O)[C@H]3Cc3ccccn3)cc2Cl)nc1; 5.82
15. Cc1cnc(NC(=O)c2ccc(CN3C(=O)c4ccc(Cl)cc4NC(=O)[C@H]3Cc3ccccn3)cc2Cl)cn1; 5.68

* * *

target: Toxin B (Clostridioides difficile); experiment: Inhibition of Clostridium difficile toxin B […] CHO cells assessed as reduction in caspase 3/7 activation pre-incubated for 1 hr before TcdB addition by luminescence based assay; format: cell-based
Sequence (P18177 whole entry, the tested form may be a part): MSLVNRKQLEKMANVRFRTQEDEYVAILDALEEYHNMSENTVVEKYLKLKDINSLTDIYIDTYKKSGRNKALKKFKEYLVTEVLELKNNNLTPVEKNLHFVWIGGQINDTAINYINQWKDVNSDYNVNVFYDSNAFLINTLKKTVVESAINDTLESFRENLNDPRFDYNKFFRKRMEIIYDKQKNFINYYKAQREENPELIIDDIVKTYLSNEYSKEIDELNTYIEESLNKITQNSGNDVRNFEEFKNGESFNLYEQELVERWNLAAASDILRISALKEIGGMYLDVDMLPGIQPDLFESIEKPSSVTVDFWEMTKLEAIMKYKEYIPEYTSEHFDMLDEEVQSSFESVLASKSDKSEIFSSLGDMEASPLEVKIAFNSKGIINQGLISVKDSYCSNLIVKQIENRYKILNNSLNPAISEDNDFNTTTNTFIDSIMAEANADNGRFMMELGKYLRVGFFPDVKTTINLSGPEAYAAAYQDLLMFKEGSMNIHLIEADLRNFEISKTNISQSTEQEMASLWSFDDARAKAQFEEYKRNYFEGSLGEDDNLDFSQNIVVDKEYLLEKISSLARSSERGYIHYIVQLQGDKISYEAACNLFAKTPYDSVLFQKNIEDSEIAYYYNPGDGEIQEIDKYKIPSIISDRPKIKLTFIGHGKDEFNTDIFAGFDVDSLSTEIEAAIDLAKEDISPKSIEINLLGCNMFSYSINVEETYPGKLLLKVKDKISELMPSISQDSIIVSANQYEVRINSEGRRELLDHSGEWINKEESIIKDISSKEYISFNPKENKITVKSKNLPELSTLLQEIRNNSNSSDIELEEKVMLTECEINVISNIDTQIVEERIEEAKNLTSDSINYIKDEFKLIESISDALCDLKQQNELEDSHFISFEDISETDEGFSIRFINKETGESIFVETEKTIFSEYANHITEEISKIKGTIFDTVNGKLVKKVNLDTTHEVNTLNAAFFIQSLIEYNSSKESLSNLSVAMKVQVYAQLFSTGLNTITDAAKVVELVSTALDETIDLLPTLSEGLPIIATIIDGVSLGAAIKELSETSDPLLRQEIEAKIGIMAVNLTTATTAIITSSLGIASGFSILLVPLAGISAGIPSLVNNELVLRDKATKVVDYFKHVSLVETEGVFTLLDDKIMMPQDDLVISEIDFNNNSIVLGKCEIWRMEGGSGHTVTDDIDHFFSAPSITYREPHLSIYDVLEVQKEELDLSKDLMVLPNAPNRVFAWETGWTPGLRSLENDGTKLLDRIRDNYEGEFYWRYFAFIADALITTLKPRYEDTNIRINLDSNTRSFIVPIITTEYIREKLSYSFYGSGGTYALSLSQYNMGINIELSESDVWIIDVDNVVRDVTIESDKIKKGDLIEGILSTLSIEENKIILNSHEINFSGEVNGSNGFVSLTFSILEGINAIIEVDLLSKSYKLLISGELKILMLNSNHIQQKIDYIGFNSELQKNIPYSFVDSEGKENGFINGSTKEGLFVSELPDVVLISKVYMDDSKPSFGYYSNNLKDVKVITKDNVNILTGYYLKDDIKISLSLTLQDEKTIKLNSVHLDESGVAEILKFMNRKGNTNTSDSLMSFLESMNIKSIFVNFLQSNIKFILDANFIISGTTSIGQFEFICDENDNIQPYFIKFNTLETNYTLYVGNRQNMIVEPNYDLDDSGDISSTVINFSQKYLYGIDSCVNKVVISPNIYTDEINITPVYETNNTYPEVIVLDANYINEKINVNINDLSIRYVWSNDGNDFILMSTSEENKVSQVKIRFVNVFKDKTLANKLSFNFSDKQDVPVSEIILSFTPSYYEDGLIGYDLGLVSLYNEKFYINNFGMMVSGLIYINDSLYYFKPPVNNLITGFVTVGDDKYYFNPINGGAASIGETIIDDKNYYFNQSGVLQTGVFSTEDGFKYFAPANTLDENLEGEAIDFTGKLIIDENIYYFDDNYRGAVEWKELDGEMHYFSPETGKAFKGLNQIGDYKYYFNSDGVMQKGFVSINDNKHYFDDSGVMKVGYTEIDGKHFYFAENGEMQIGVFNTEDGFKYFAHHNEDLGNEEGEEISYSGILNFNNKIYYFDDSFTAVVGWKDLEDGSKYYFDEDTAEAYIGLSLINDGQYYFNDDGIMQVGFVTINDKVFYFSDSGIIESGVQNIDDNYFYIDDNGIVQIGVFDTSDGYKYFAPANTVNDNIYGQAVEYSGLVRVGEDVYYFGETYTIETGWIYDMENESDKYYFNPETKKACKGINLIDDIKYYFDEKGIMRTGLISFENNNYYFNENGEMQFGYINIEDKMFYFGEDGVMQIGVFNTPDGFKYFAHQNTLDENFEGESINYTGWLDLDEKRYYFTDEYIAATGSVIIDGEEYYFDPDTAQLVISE
Reported IC50 by item:
ASSAY METRIC: IC50 (nM)

1. COc1cc(CN2C(=O)c3ccc(Cl)cc3NC(=O)[C@H]2Cc2ccccn2)ccc1C(=O)Nc1ccc(C)cn1; 1900
2. O=C(c1ccc(CN2C(=O)c3ccc(Cl)cc3NC(=O)[C@H]2Cc2ccccn2)cc1)c1c[nH]c2cccnc12; 1800
3. Cc1cnc(NC(=O)c2ccc(CN3C(=O)c4ccc(Cl)cc4NC(=O)[C@H]3Cc3ccccn3)cc2Cl)cn1; 220
4. O=C(c1ccc(CN2C(=O)c3ccc(Cl)cc3NC(=O)[C@H]2Cc2ccccn2)cc1)c1cccn2ccnc12; 660
5. COc1cnc(NC(=O)c2ccc(CN3C(=O)c4ccc(Cl)cc4NC(=O)[C@H]3Cc3ccccn3)cc2Cl)cn1; 490
6. Cc1cc(CN2C(=O)c3ccc(Cl)cc3NC(=O)[C@H]2Cc2ccccn2)ccc1C(=O)Nc1ccc(C#N)cn1; 78
7. O=C(Nc1ccc(C(F)(F)F)cn1)c1ccc(CN2C(=O)c3ccc(Cl)cc3NC(=O)[C@H]2Cc2ccccn2)cc1Cl; 250
8. COc1ccc(NC(=O)c2ccc(CN3C(=O)c4ccc(Cl)cc4NC(=O)[C@H]3Cc3ccccn3)cc2Cl)nc1; 61
9. Cc1ccc(NC(=O)c2ccc(CN3C(=O)c4ccc(Cl)cc4NC(=O)[C@H]3Cc3ccccn3)cc2Cl)nc1; 24
10. COc1cnc(NC(=O)c2ccc(CN3C(=O)c4ccc(Cl)cc4NC(=O)[C@H]3Cc3ccccn3)cc2C)nc1; 29
11. COc1cc(CN2C(=O)c3ccc(Cl)cc3NC(=O)[C@H]2Cc2ccccn2)ccc1C(=O)Nc1ccc(C(F)(F)F)cn1; 660
12. Cc1cnc(NC(=O)c2ccc(CN3C(=O)c4ccc(Cl)cc4NC(=O)[C@H]3Cc3ccccn3)cc2Cl)nc1; 130
13. O=C(Nc1ccc(F)cn1)c1ccc(CN2C(=O)c3ccc(Cl)cc3NC(=O)[C@H]2Cc2ccccn2)cc1Cl; 130
14. Cc1cc(CN2C(=O)c3ccc(Cl)cc3NC(=O)[C@H]2Cc2ccccn2)ccc1C(=O)Nc1ccc(C(F)(F)F)cn1; 170
15. Cc1ccc(C(=O)c2ccc(CN3C(=O)c4ccc(Cl)cc4NC(=O)[C@H]3Cc3ccccn3)cc2)nc1; 5900
16. N#Cc1ccc(NC(=O)c2ccc(CN3C(=O)c4ccc(Cl)cc4NC(=O)[C@H]3Cc3ccccn3)cc2Cl)nc1; 52
17. Cc1ccc(NC(=O)c2ccc(CN3C(=O)c4ccc(Cl)cc4NC(=O)[C@H]3Cc3ccccn3)cc2C)nc1; 61
18. Cc1cc(CN2C(=O)c3ccc(Cl)cc3NC(=O)[C@H]2Cc2ccccn2)ccc1C(=O)Nc1ccc(F)cn1; 62
19. COc1cnc(NC(=O)c2ccc(CN3C(=O)c4ccc(Cl)cc4NC(=O)[C@H]3Cc3ccccn3)cc2)nc1; 3
20. O=C(c1ccc(CN2C(=O)c3ccc(Cl)cc3NC(=O)[C@H]2Cc2ccccn2)cc1)c1ccccn1; 4200
21. COc1cnc(NC(=O)c2ccc(CN3C(=O)c4ccc(Cl)cc4NC(=O)[C@H]3Cc3ccccn3)cc2Cl)nc1; 53
22. Cn1cc(C(=O)c2ccc(CN3C(=O)c4ccc(Cl)cc4NC(=O)[C@H]3Cc3ccccn3)cc2)c2ncccc21; 330
23. O=C(c1ccc(CN2C(=O)c3ccc(Cl)cc3NC(=O)[C@H]2Cc2ccccn2)cc1)c1cccn2ncnc12; 1600
24. COc1ccc(NC(=O)c2ccc(CN3C(=O)c4ccc(Cl)cc4NC(=O)[C@H]3Cc3ccccn3)cc2C)nc1; 71
25. COc1ccc(NC(=O)c2ccc(CN3C(=O)c4ccc(Cl)cc4NC(=O)[C@H]3Cc3ccccn3)cc2OC)nc1; 130
26. Cc1cnc(NC(=O)c2ccc(CN3C(=O)c4ccc(Cl)cc4NC(=O)[C@H]3Cc3ccccn3)cc2C)nc1; 130
27. COc1cc(CN2C(=O)c3ccc(Cl)cc3NC(=O)[C@H]2Cc2ccccn2)ccc1C(=O)Nc1ccc(F)cn1; 1100

* * *

test: Clearance in CD-1 mouse at 1 mg/kg, iv; type: ADME, organism-based; settings: in vivo
ASSAY METRIC: clearance (mL/min/kg)

1) O=C(Nc1ccc(C(F)(F)F)cn1)c1ccc(CN2C(=O)c3ccc(Cl)cc3NC(=O)[C@H]2Cc2ccccn2)cc1Cl; 28

* * *

Reported pIC50 by item:
biological target: Toxin B (Clostridioides difficile); experiment: Inhibition of C-terminal 6-His tagged recombinant Clostridium difficile toxin B glucosyltransferase domain assessed as reduction in UDP-glucose hydrolysis activity using UDP-glucose substrate and ADP Alexa633 tracer incubated for 3 hrs by fluorescence polarization assay
pIC50: −log10 of the molar value.
ASSAY METRIC: pIC50

1) O=C(O)c1c(Cl)cc(CN2C(=O)c3ccc(Cl)cc3NC(=O)[C@H]2Cc2ccccn2)cc1Cl; 5.13
2) COc1cc(CN2C(=O)c3ccc(Cl)cc3NC(=O)[C@H]2Cc2ccccn2)ccc1C(=O)Nc1ccc(C(F)(F)F)cn1; 7.39
3) O=C(Nc1ccc(F)cn1)c1ccc(CN2C(=O)c3ccc(Cl)cc3NC(=O)[C@H]2Cc2ccccn2)cc1Cl; 8.40
4) O=C(c1ccc(CN2C(=O)c3ccc(Cl)cc3NC(=O)[C@H]2Cc2ccccn2)cc1)c1cccn2ncnc12; 7.21
5) COc1ccc(NC(=O)c2ccc(CN3C(=O)c4ccc(Cl)cc4NC(=O)[C@H]3Cc3ccccn3)cc2Cl)nc1; 8.30
6) O=C(c1ccc(CN2C(=O)c3ccc(Cl)cc3NC(=O)[C@H]2Cc2ccccn2)cc1)c1ccccn1; 7.35
7) COc1cc(CN2C(=O)c3ccc(Cl)cc3NC(=O)[C@H]2Cc2ccccn2)ccc1C(=O)Nc1ccc(C)cn1; 8.05
8) Cc1cc(CN2C(=O)c3ccc(Cl)cc3NC(=O)[C@H]2Cc2ccccn2)ccc1C(=O)Nc1ccc(C(F)(F)F)cn1; 7.70

Hey, just so you know, these numbers are from ChEMBL document CHEMBL4325886.
